Target: GALC (Mus musculus)
Construct: made in house
Experiment: Differential scanning fluorimetry (DSF) thermal shift of wild-type GALC
Assay type: binding
Conditions: 5.0 mM compound, sodium acetate pH 4.6, mean ± SEM, triplicate; read-out: ΔTm pH 4.6
Task for the reader: assign each of the following molecules its reported ΔTm at 5000 µM.
Kindly provide the numeric value in °C only, without the unit symbol.

The reported GALC (Mus musculus) ΔTm at 5000 µM of OC[C@H]1NNC[C@@H](O)[C@H]1O is 16.4

The reported GALC (Mus musculus) ΔTm at 5000 µM of OC[C@H]1CNC[C@@H](O)[C@H]1O is 17.7

The reported GALC (Mus musculus) ΔTm at 5000 µM of OC[C@H]1NC[C@@H](O)[C@H]1O is 7.2

The reported GALC (Mus musculus) ΔTm at 5000 µM of O=C1NC[C@H](CO)[C@H](O)[C@@H]1O is 8.1

The reported GALC (Mus musculus) ΔTm at 5000 µM of OCC1C2CCC(N2)C(O)C1O (centres unmarked) is 1

====

Target: GALC (Mus musculus, UniProt P54818)
Construct: made in house
Sequence (P54818 43-684): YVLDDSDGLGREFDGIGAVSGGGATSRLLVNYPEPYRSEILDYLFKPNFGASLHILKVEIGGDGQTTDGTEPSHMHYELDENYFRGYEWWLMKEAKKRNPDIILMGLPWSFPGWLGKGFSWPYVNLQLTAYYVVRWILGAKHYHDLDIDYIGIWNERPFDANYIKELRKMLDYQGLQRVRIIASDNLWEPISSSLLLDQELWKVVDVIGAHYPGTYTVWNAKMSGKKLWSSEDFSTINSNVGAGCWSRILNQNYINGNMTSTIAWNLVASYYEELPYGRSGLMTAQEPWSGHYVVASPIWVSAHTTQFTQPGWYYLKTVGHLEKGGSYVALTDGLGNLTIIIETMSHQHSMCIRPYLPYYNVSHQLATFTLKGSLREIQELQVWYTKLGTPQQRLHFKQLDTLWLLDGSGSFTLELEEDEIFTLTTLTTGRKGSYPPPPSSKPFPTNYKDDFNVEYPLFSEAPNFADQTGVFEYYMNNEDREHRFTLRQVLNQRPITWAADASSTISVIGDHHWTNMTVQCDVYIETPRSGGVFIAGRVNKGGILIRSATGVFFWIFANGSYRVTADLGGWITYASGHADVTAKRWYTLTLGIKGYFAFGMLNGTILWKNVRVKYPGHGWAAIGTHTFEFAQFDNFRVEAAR
Test: Differential scanning fluorimetry (DSF) thermal shift of wild-type GALC
Format: binding
Settings: 5.0 mM compound, PBS pH 7.4, mean ± SEM, triplicate; read-out: ΔTm pH 7.4
observation type: ΔTm at 5000 µM (°C)
Kindly provide the numeric value in °C only, without the unit symbol.

For reference, reported ΔTm at 5000 µM for OCC1NCC(O)C(O)C1O (centres unmarked) [DGJ, 1-deoxy-galacto-nojirimycin, reference compound] stands at 5.2

For reference, reported ΔTm at 5000 µM for O=C1NC[C@H](CO)[C@H](O)[C@@H]1O stands at 1.6

For reference, reported ΔTm at 5000 µM for OCC1C2CCC(N2)C(O)C1O (centres unmarked) stands at -3.6

For reference, reported ΔTm at 5000 µM for OC[C@H]1NNC[C@@H](O)[C@H]1O stands at 4.6

For reference, reported ΔTm at 5000 µM for OC[C@H]1NC[C@@H](O)[C@H]1O stands at 4
